B1: GNAI1 (parent)
chain: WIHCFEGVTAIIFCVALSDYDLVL

- Variants of: B1
- test summary: protein stability index of a GFP-peptide fusion (GPS, HEK-293T) (PSI 1-6); higher = more stable;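 also: lentivirally expressed fusions sorted by FACS into six bins by GFP to DsRed ratio, PSI derived from sequencing read proportions per bin multiplied by bin number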
- run conditions: c terminus: a fixed tail appended
parameter: protein stability index

>  <mut>
F5A

>  <parameter>
protein stability index

>  <reported result>
3.47

$$$$
>  <mut>
I2A

>  <parameter>
protein stability index

>  <reported result>
2.9

$$$$
>  <mut>
F13C

>  <parameter>
protein stability index

>  <reported result>
2.64

$$$$
>  <mut>
C14M

>  <parameter>
protein stability index

>  <reported result>
1.93

$$$$
>  <mut>
L22A

>  <parameter>
protein stability index

>  <reported result>
1.82

$$$$
>  <mut>
C14P

>  <parameter>
protein stability index

>  <reported result>
2.46

$$$$
>  <mut>
D19L

>  <parameter>
protein stability index

>  <reported result>
2.58

$$$$
>  <mut>
D21M

>  <parameter>
protein stability index

>  <reported result>
2.88

$$$$
>  <mut>
E6I

>  <parameter>
protein stability index

>  <reported result>
3.12

$$$$
>  <mut>
W1P

>  <parameter>
protein stability index

>  <reported result>
3.51

$$$$
>  <mut>
V15M

>  <parameter>
protein stability index

>  <reported result>
1.77

$$$$
>  <mut>
W1F

>  <parameter>
protein stability index

>  <reported result>
2.29

$$$$
>  <mut>
C4H

>  <parameter>
protein stability index

>  <reported result>
2.22

$$$$
>  <mut>
G7L

>  <parameter>
protein stability index

>  <reported result>
2.54

$$$$
>  <mut>
S18A

>  <parameter>
protein stability index

>  <reported result>
1.86

$$$$
>  <mut>
F13S

>  <parameter>
protein stability index

>  <reported result>
2.34

$$$$
>  <mut>
G7T

>  <parameter>
protein stability index

>  <reported result>
2.51

$$$$
>  <mut>
V15N

>  <parameter>
protein stability index

>  <reported result>
3.17

$$$$
>  <mut>
V23T

>  <parameter>
protein stability index

>  <reported result>
3.6

$$$$
>  <mut>
H3K

>  <parameter>
protein stability index

>  <reported result>
3.35

$$$$
>  <mut>
F5T

>  <parameter>
protein stability index

>  <reported result>
2.87

$$$$
>  <mut>
E6Q

>  <parameter>
protein stability index

>  <reported result>
1.76

$$$$
